The measurements presented in this section are drawn from ChEMBL document CHEMBL4689842.

# System: U2OS
# protocol-description: Multiplex assay against U2OS
# Assay type: toxicity, cell-based
# condition-context: human, 48 h, 10 µM, compound concentration 10 uM, replicate 2
property-measured: Population Healthy Nuclei (%)
Quick reminder: number only, in %, skip the unit.

molecule: CCOc1cc(C(=O)N2CCC(N3CCN(C)CC3)CC2)ccc1Nc1ncc2c(n1)N(C1CCCC1)c1ccccc1C(=O)N2C
Population Healthy Nuclei (%): 20

molecule: O=C(Nc1ccc(-c2ccnc(Nc3ccc(N4CCOCC4)cc3)n2)cc1)[C@@H]1CCCN1
Population Healthy Nuclei (%): 70

molecule: COc1cc(N2CCN(C)CC2)ccc1Nc1ncc2c(n1)N(C)c1ccccc1C(=O)N2C
Population Healthy Nuclei (%): 46

Entry under review: CN(C)C(=O)C(CCN1CCC(O)(c2ccc(Cl)cc2)CC1)(c1ccccc1)c1ccccc1.Cl [LOPERAMIDE HYDROCHLORIDE] . Reported Population Healthy Nuclei (%)? 30
